Origin of values: BindingDB's records for doi:10.1016/0014-2999(79)90202-4

- ASSAY_TARGET: 5-hydroxytryptamine receptor 7 (Rattus norvegicus, UniProt P32305)
- Sequence (P32305 whole entry): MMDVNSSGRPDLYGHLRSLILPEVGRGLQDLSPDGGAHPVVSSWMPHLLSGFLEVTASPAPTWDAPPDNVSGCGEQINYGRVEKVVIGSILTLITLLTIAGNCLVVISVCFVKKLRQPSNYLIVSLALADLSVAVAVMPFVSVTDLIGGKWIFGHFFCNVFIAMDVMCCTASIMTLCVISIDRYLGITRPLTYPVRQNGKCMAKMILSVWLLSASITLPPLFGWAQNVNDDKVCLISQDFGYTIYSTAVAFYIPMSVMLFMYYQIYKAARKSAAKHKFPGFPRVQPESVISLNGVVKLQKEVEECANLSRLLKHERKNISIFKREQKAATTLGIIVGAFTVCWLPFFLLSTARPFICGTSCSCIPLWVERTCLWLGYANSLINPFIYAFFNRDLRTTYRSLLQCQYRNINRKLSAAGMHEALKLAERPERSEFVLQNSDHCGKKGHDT
METRIC_NAME: Ki (nM)

Take a look at these entries with their results.
compound="COc1cc2nc(N3CCN(C(=O)c4ccco4)CC3)nc(N)c2cc1OC [[3H]-Minipress]" metric_name=Ki unit_annotation=nM value_measured=0.1
compound="COc1cccc(OC)c1OCCNCC1Oc2ccccc2OC1c1ccccc1 (stereo not drawn)" metric_name=Ki unit_annotation=nM value_measured=1
compound="c1ccc2c(c1)OCC(CN1CCCCC1)O2 (stereo not drawn)" metric_name=Ki unit_annotation=nM value_measured=360

1: CNCC(O)c1ccc(O)c(O)c1 (stereo not drawn) [EPINEPHRINE]
2: Cc1cc(C(C)(C)C)c(O)c(C)c1CC1=NCCN1
Quick one: lower Ki, 1 or 2 ? Identify your selection by its label. 2
